# Tested on: W2
# assay remarks: qHTS profiling for inhibitors of Plasmodium falciparum proliferation (AID 504749); also: nearly all actives have a fitted effect of over 60% in size
# condition summary: P. falciparum in erythrocytes, SYBR Green DNA, 72 h; series mostly up to 28.7 µM
Records with an inconclusive call do not appear. Activity calls are given as the source filed them. Calls follow the shape of the dose curve; as a rule, active = well fitted inhibition curve with a large enough effect; inconclusive = small, poorly fitted or top-dose-only effect; inactive = flat fitted curve, though single readings scatter.
API: response.call in active, inactive

Recorded results for 5 molecules are shown here.
{"columns": ["molecule", "cat"],
 "data": [
  ["CCCCCCCCCCCCCCCC[N+](C)(C)Cc1ccccc1", "active"],
  ["Nc1ncnc2nc[nH]c12", "inactive"],
  ["Nc1c2ccccc2nc2ccccc12", "active"],
  ["CN1CCCN(C(c2ccccc2)c2ccc(Cl)cc2)CC1 (configuration not stated)", "active"],
  ["CC(NCCC(c1ccccc1)c1ccccc1)c1ccccc1 (configuration not stated)", "active"]
]}

Request: Dear colleague, could you share the recorded outcome for O=C(Nc1ccc(Cl)cc1)Nc1ccc(Cl)c(Cl)c1 when you have a moment?
Response: active

Request: Dear colleague, could you share the recorded outcome for O=S(=O)(O)c1ccc2nc(-c3ccccc3)[nH]c2c1 when you have a moment?
Response: inactive

###

# System: PAD
# assay remarks: qHTS profiling for inhibitors of Plasmodium falciparum proliferation (AID 504749); also: nearly all actives have a fitted effect of over 60% in size; also: potency is read from the fitted curve at half-maximal effect
# condition summary: P. falciparum in erythrocytes, SYBR Green DNA, 72 h; series mostly up to 28.7 µM
Inconclusive results are not listed. Activity calls are given as the source filed them. Calls come from the whole dose curve; as a rule, active = well fitted inhibition curve with a large enough effect; inconclusive = small, poorly fitted or top-dose-only effect; inactive = flat fitted curve, though single readings scatter.
readout name: Potency

{"columns": ["molecule", "study system", "Potency"],
 "data": [
  ["O=[N+]([O-])c1ccc(O)c2ncccc12", "PAD", "inactive"],
  ["Nc1ncnc2nc[nH]c12", "PAD", "inactive"],
  ["CN1CCCN(C(c2ccccc2)c2ccc(Cl)cc2)CC1 (stereo unspecified)", "PAD", "5.62 µM (active)"],
  ["CCCCCCCCCCCCCCCC[n+]1ccccc1", "PAD", "12.6 µM (active)"]
]}

Form: molecule = CCCCCCCCCCCCCC[N+](C)(C)C ; Potency = 10 µM (active)

Form: molecule = O=S(=O)(O)c1ccc2nc(-c3ccccc3)[nH]c2c1 ; Potency = inactive

###

# assay remarks: Stat Signaling Pathway (AID 446);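 also: ME-180 cervical cancer cells given 40 pM IL-6 alongside compound; SIE-controlled beta-lactamase reporter measured as 460/530 nm FRET emission ratio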
# condition summary: ME-180 (cervical carcinoma) SIE beta-lactamase reporter, IL-6 stimulated, 5 h; series mostly up to 17.2 µM
Inconclusive results are not listed. The source made the active and inactive calls. Calls come from the whole dose curve; as a rule, active = well fitted curve in either direction with a large enough effect (not every such curve was filed as active); inconclusive = small, poorly fitted or top-dose-only effect, or another doubt; inactive = flat fitted curve, though single readings scatter.
readout name: outcome

{"columns": ["molecule", "readout name", "observed value"],
 "data": [
  ["CC(=O)OCC[N+](C)(C)C", "outcome", "inactive"],
  ["CCCCCC(=O)O[C@]1(C(C)=O)CC[C@H]2[C@@H]3CCC4=CC(=O)CC[C@]4(C)[C@H]3CC[C@@]21C", "outcome", "inactive"],
  ["CC1(C)O[C@@H]2C[C@H]3[C@@H]4C[C@H](F)C5=CC(=O)C=C[C@]5(C)[C@@]4(F)[C@@H](O)C[C@]3(C)[C@]2(C(=O)CO)O1", "outcome", "inactive"],
  ["CN1CCCN(C(c2ccccc2)c2ccc(Cl)cc2)CC1 (stereo unspecified)", "outcome", "inactive"]
]}

Form: molecule = CCOC(=O)NNc1nncc2ccccc12 ; outcome = inactive

Form: molecule = C[N+](C)(C)CCO ; outcome = inactive

###

# Test system: PA-1
# assay remarks: Primary qHTS to identify gynecologic anti-cancer compounds using libraries of approved drugs and bioactive compounds (AID 1345084); also: nearly all actives have a fitted effect of over 55% in size
# condition summary: Gynecologic cancer cell panel viability, ATPlite luminescence, 48 h; series mostly up to 57.5 µM
Results filed as inconclusive are left out. The source made the active and inactive calls. Calls come from the whole dose curve; as a rule, active = well fitted cell-killing curve with a large enough effect; inconclusive = small, poorly fitted or top-dose-only effect, or effect the other way; inactive = flat fitted curve, though single readings scatter.
API: response.call in 1 (yes) (active), 0 (no) (inactive)

Recorded results for 4 compounds are shown here.
{"columns": ["compound", "cat"],
 "data": [
  ["CC(=O)OCC(=O)[C@@]1(O)CCC2C3CCC4=CC(=O)CC[C@]4(C)C3[C@@H](O)C[C@@]21C (some centres not stated)", "0 (no)"],
  ["COC(=O)c1c(Cl)c(Cl)c(C(=O)OC)c(Cl)c1Cl", "0 (no)"],
  ["COC(=O)[C@H]1[C@H]2C[C@@H]3c4[nH]c5cc(OC)ccc5c4CCN3C[C@H]2C[C@@H](OC(=O)/C=C/c2ccc(O)c(OC)c2)[C@@H]1OC", "0 (no)"],
  ["CSCC[C@H](NC(=O)[C@H](Cc1c[nH]c2ccccc12)NC(=O)CCNC(=O)OC(C)(C)C)C(=O)N[C@@H](CC(=O)O)C(=O)N[C@@H](Cc1ccccc1)C(N)=O", "0 (no)"]
]}

Request: Dear colleague, could you share the recorded outcome for OC1(c2ccc(Cl)c(C(F)(F)F)c2)CCN(CCCC(c2ccc(F)cc2)c2ccc(F)cc2)CC1 when you have a moment?
Response: 0 (no)

Request: Dear colleague, could you share the recorded outcome for C/C(=C1\CCOC(=O)S1)N(C=O)Cc1cnc(C)nc1N when you have a moment?
Response: 0 (no)
